test: Secretion counterscreen for inhibitors of the SERCaMP assay screened against the NCATS CANVASS Library (AID 1347390); settings: SH-SY5Y constitutive GLuc secretion, luminescence, 20 h; series mostly up to 76.6 µM;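 also: light from luciferase secreted into medium read as a measure of general secretion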
Results filed as inconclusive are left out. Activity calls are given as the source filed them. Calls follow the shape of the dose curve; as a rule, active = well fitted inhibition curve with a large enough effect; inconclusive = small, poorly fitted or top-dose-only effect; inactive = no such curve, though single readings can be large or run the other way.
Outcome codes: active, inactive

{"MOLECULE": "C/C=C/C=C/C1(O)C2C=C3C(=O)CC45C(=O)C(O)=C(C)C(=O)C4C1C1(C(=O)C(O)=C(C)C(=O)C351)C2C (stereo unspecified)", "LABEL": "inactive"}
{"MOLECULE": "CCCCCCC[C@@H](C/C=C/CCC(=O)NCCc1c[nH]c2ccccc12)OC", "LABEL": "inactive"}
{"MOLECULE": "CNc1ccc(Cl)cc1C(=O)OC[C@]1(C)[C@H]2CC[C@]3(C)[C@@H](C[C@@H](OC)[C@H](C)[C@H]3C3=C(O)C(=O)OC3O)[C@]2(C)CC[C@H]1O (stereo partly specified)", "LABEL": "inactive"}
{"MOLECULE": "CO[C@H]1/C=C/CC[C@@H](S[C@@H]2O[C@H](CO)[C@@H](O)[C@H](O)[C@H]2O)CC(=O)O[C@@H](/C(C)=C/[C@H](C)C(=O)CCCC2CC(=O)NC(=O)C2)[C@@H](C)[C@@H]1O", "LABEL": "active"}
{"MOLECULE": "C/C=C/C(=O)[C@@H](C)C1=CC(=O)C2=C(O[C@@]34CC[C@H](O)C(C)(C)[C@@H]3CC[C@H](C)[C@@]4(C)C2)C1=O", "LABEL": "active"}
{"MOLECULE": "C=C[C@@]1(C)CC[C@@H]([C@H](C)C(=O)/C=C/C(C)C)O1", "LABEL": "inactive"}
{"MOLECULE": "O=C(O)Cc1c[nH]c2ccccc12", "LABEL": "inactive"}
{"MOLECULE": "O=C1c2c(O)cc(O)cc2O[C@@H](c2ccc(O)cc2)[C@@H]1c1c(O)cc(O)c2c(=O)cc(-c3ccc(O)c(O)c3)oc12", "LABEL": "inactive"}
{"MOLECULE": "C=CC(C)(C)C(=O)[C@@H](C)[C@@H]1CC[C@](C)(C=C)O1", "LABEL": "inactive"}
{"MOLECULE": "CC1=CC2=C[C@H](C)C[C@@]23OC(=C(C)C3=O)CC(C)(C)/C=C/C1=O", "LABEL": "active"}
{"MOLECULE": "C/C(=C\\[C@H](C)C(=O)CCCC1CC(=O)NC(=O)C1)[C@@H]1OC(=O)/C=C/CC/C=C/C[C@@H](O)[C@@H]1C", "LABEL": "active"}

====

Assay: qHTS for Inhibitors of Plasmodium falciparum (7G8) proliferation (AID 504316); also: nearly all actives have a fitted effect of over 65% in size
Conditions: P. falciparum 7G8 in erythrocytes, SYBR Green DNA, 72 h; series mostly up to 6.7 µM
Text: Plasmodium falciparum is a virulent malarial parasite that kills 1-2 million people worldwide each year. Malaria not only inflicts tremendous suffering and morbidity on the human population, but has dramatically influenced the course of civilization with profound sociological and economic implications (Shah, S. 2010). […] Because mature erythrocytes lack DNA, only Plasmodium-derived DNA is detected. […]
Records with an inconclusive call do not appear. Activity calls are given as the source filed them. The call rests on the fitted dose curve; in most records, active means well fitted inhibition curve with a large enough effect; inconclusive means small, poorly fitted or top-dose-only effect; inactive means flat fitted curve, though single readings scatter.

{"MOLECULE": "COC(=O)CCC(=O)OC1(C)C(=O)C2=COC(c3ccc(OC)cc3)=CC2=C(Br)C1=O (stereo not drawn)", "outcome": "inactive"}
{"MOLECULE": "CCN1C(=O)NC(c2cccc(C(F)(F)F)c2)C(C(=O)OC)=C1C (stereo not drawn)", "outcome": "inactive"}
{"MOLECULE": "CC(C)(C)OC(=O)N1CCC[C@@H]1C(O)(c1ccccc1)c1ccccc1", "outcome": "inactive"}
{"MOLECULE": "C[C@@H]1C=CCCO[C@]12C(=O)Nc1ccccc12", "outcome": "inactive"}
{"MOLECULE": "C[C@H]1COC(=O)[C@H](Cc2ccccc2)NC(=O)[C@@H](C)COC(=O)[C@H](Cc2ccccc2)NC1=O", "outcome": "inactive"}
{"MOLECULE": "CCCCC1=CC2=C(c3ccco3)C(=O)C(C)(OC(=O)c3ccc(OC)cc3)C(=O)C2=CN1Cc1ccc(OC)cc1 (stereo not drawn)", "outcome": "inactive"}
{"MOLECULE": "C=CCOC(=O)N[C@H](c1ccccc1)[C@H](C)C=CCC(=O)OC", "outcome": "inactive"}
{"MOLECULE": "C=CCOC(=O)N[C@H](c1cccc(OC)c1)[C@H](C)C=CCC(=O)OC", "outcome": "inactive"}

====

experiment: qHTS for Inhibitors of Plasmodium falciparum (HB3) proliferation (AID 504318); also: nearly all actives have a fitted effect of over 60% in size; details: P. falciparum HB3 in erythrocytes, SYBR Green DNA, 72 h; series mostly up to 7.21 µM
Inconclusive results are not listed. Active and inactive are the calls of the source. Calls come from the whole dose curve; as a rule, active = well fitted inhibition curve with a large enough effect; inconclusive = small, poorly fitted or top-dose-only effect; inactive = flat fitted curve, though single readings scatter.
RESULT_TYPE: outcome

{"COMPOUND": "C=CCOC(=O)N[C@H](c1cccc(OC)c1)[C@H](C)C=CCC(=O)OC", "RESULT_TYPE": "outcome", "ENDPOINT_RESULT": "inactive"}
{"COMPOUND": "CCOC(=O)NN=Cc1ccccc1-c1cc(OC)ccc1OC", "RESULT_TYPE": "outcome", "ENDPOINT_RESULT": "inactive"}
{"COMPOUND": "COC1=C[C@H](C(=O)NCc2ccc(OC)cc2)C(C)C(c2ccccc2)CC1=O (stereo partly drawn)", "RESULT_TYPE": "outcome", "ENDPOINT_RESULT": "inactive"}

====

Experiment: Viability qHTS for inhibitors of the SERCaMP assay screened against the NCATS CANVASS Library (AID 1347400); also: nearly all actives have a fitted effect of over 70% in size
Conditions: SH-SY5Y SERCaMP cells viability, CellTiter-Glo, 48 h; series mostly up to 92.2 µM
Source text: Natural products and their derivatives continue to be wellsprings of nascent therapeutic potential. […] To address this issue, the Canvass library of natural products was assembled (https://tripod.nih.gov/canvass), in collaboration with academic and industry researchers, for quantitative high-throughput screening (qHTS) across a diverse set of cell-based and biochemical assays. […]
Inconclusive results are not listed. Active and inactive are the calls of the source. Calls come from the whole dose curve; as a rule, active = well fitted cell-killing curve with a large enough effect; inconclusive = small, poorly fitted or top-dose-only effect; inactive = flat fitted curve, though single readings scatter.
Outcomes: active, inactive

{"COMPOUND": "C[C@@H](O)[C@H]1OC(=O)C=C2[C@]3(C)[C@H]4[C@H](OC(=O)[C@@]4(C)[C@@H](O)[C@H]4O[C@H]43)[C@H]3O[C@@]231", "LABEL": "active"}
{"COMPOUND": "CC1=CC[C@@]2(C[C@@H]1O)[C@@H](C(=O)O)CC[C@H]2C(C)C", "LABEL": "inactive"}
{"COMPOUND": "C[C@@H]1O[C@@H](O[C@@H]2[C@@H](O)[C@H](O[C@@H]3[C@@H](O)[C@@H](O)C(O[C@H]4[C@H](OC(=O)[C@]56CCC(C)(C)C[C@H]5C5=CCC7[C@@]8(C)C[C@H](O)[C@H](O[C@@H]9C[C@H](CO)[C@@H](O)[C@H](O)[C@H]9O)[C@@](C)(CO)C8[C@H](O)C[C@@]7(C)[C@]5(C)CC6)OC[C@H](O)[C@@H]4O)O[C@H]3C)OC[C@H]2O)[C@H](O)[C@H](O)[C@H]1O (stereo partly specified)", "LABEL": "inactive"}
{"COMPOUND": "C=C[C@@]1(C)CC[C@@H]([C@H](C)C(=O)/C=C/C(C)C)O1", "LABEL": "inactive"}
{"COMPOUND": "CC(=O)[C@@H]1[C@@H](O)C[C@H]2[C@]3(C)CC[C@H]4C(C)(C)CCC[C@]4(CO)[C@H]3C[C@H]3OC(=O)[C@@H]1[C@@]32C", "LABEL": "inactive"}
{"COMPOUND": "O=Cc1ccc2n1C[C@@]1(C[C@H](O)[C@H](O)CO1)OC2", "LABEL": "inactive"}

====

experiment: SDT Cancer Cell Toxicity qHTS against the NCATS CANVASS Library (AID 1347365); conditions: SDT dog glioma viability, ATP luminescence, 72 h; series mostly up to 46.1 µM; also: nearly all actives have a fitted effect of over 60% in size
Records with an inconclusive call do not appear. Active and inactive are the calls of the source. Calls come from the whole dose curve; as a rule, active = well fitted cell-killing curve with a large enough effect; inconclusive = small, poorly fitted or top-dose-only effect; inactive = flat fitted curve, though single readings scatter.
Classes used: active, inactive

{"MOLECULE": "CC(=O)[C@@H]1[C@@H](O)C[C@H]2[C@]3(C)CC[C@H]4C(C)(C)CCC[C@]4(CO)[C@H]3C[C@H]3OC(=O)[C@@H]1[C@@]32C", "LABEL": "inactive"}
{"MOLECULE": "CO[C@@H]1C[C@@H](C[C@H]2CC[C@H](C)[C@H]([C@@H](C)C(=O)O)O2)O[C@]2(O[C@](C)([C@H]3CC[C@@](C)([C@@H]4O[C@@H]([C@H]5O[C@](C)(O)[C@H](C)C[C@@H]5C)C[C@@H]4C)O3)C[C@H]2C)[C@@H]1C", "LABEL": "active"}
{"MOLECULE": "C=CC(=C)CC[C@]1(C)[C@H]2C[C@H](OC(=O)C(C)CC)C=C3[C@H](OC(C)=O)O[C@H](OC(C)=O)[C@@]32[C@H](OC)C[C@@H]1C (stereo partly specified)", "LABEL": "active"}
{"MOLECULE": "O=C(O)CC1OCc2c(O)cccc21 (stereo unspecified)", "LABEL": "inactive"}
{"MOLECULE": "O=C1c2c(O)cc(O)cc2O[C@@H](c2ccc(O)cc2)[C@@H]1c1c(O)cc(O)c2c(=O)cc(-c3ccc(O)c(O)c3)oc12", "LABEL": "inactive"}
{"MOLECULE": "CCCCCCCCCCCCCCC[C@H](O)C[C@@H](O)C[C@@H](O)C[C@@H](O)C[C@@H](O)C[C@H]1CC=CC(=O)O1", "LABEL": "active"}
{"MOLECULE": "CN1CC[C@]2(c3cccc4c3N[C@@H]3N(C)CC[C@]43[C@@]34CCN(C)[C@@H]3Nc3ccccc34)c3ccccc3N[C@H]12", "LABEL": "active"}
{"MOLECULE": "C[C@]12CC[C@]3(C1)[C@H](CC2=O)CC(OC(=O)c1ccccc1)[C@H]1[C@@](CO)(C(=O)O)CCC[C@@]13C (stereo partly specified)", "LABEL": "inactive"}
{"MOLECULE": "COc1cc(/C=C2/C(=O)N(c3ccc(O)cc3C(=O)O)[C@H](c3ccc(O)c(OC)c3)C2C(=O)Nc2ccc(O)cc2C(=O)O)ccc1O (stereo partly specified)", "LABEL": "inactive"}
{"MOLECULE": "CO[C@@H]1[C@H](O)[C@@H](C)O[C@@H](OC[C@H]2/C=C/C=C/C(=O)C(C)C[C@H](C)C(O[C@@H]3O[C@H](C)CC4(OC(=O)O[C@@H]4C)C3O)[C@@H](C)/C=C/C(=O)OC2C)[C@@H]1OC (stereo partly specified)", "LABEL": "inactive"}
{"MOLECULE": "COc1ccc(CCCc2cc(O)c(OC)c(O)c2)c(O)c1O", "LABEL": "active"}
